Reference source: the supplement of paper PMC10567573

Measured protein stability index, listed per entry.
B1: SPOPL (parent)
chain: YTGRAPNLDKMADNLLAAADKYAL

Variants of: B1
Assay Info: protein stability index of a GFP-peptide fusion (GPS, HEK-293T) (PSI 1-6); higher = more stable;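 also: lentivirally expressed fusions sorted by FACS into six bins by GFP to DsRed ratio, PSI derived from sequencing read proportions per bin multiplied by bin number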
Test Conditions: c terminus: a fixed tail appended
Output: the number by itself.

Record excerpt, results attached:
protein stability index for D13M is 2.12

protein stability index for T2D is 3.75

protein stability index for A5T is 2.42

protein stability index for N7H is 1.68

protein stability index for M11A is 2.02

More entries:
protein stability index for R4G is 2.74

protein stability index for A12K is 1.97

protein stability index for A18N is 2.01

protein stability index for L8F is 1.9

protein stability index for K21P is 2.48

protein stability index for L16P is 2.32
